Assay: microbe, parasite or virus in culture
Settings: Mycobacterium tuberculosis, 96 h, read-out: pIC50 (converted)
Mark Fulfilled only when IC50 stays strictly below 100 µM. Values equal to the cut-off are Not fulfilled.

For orientation, consider the following solved cases.
{"Compound": "COc1cc(CNC(=O)C(C)OCC(C)C)ccn1 (configuration not stated)", "Class Name": "Not fulfilled"}
{"Compound": "COc1cccc(CCC2CCCN(C(=O)c3ccc(OC)o3)C2)c1 (configuration not stated)", "Class Name": "Fulfilled"}
{"Compound": "CC(C)CSCCSc1nnc(N)[nH]1", "Class Name": "Not fulfilled"}
{"Compound": "CN(C)S(=O)(=O)NCC(O)c1ccc(Cl)c(F)c1 (configuration not stated)", "Class Name": "Not fulfilled"}
{"Compound": "NCc1cc(N[C@H](CO)CC2CCCCC2)ncn1", "Class Name": "Not fulfilled"}

Req: Answer whether the compound CN(C)C(CN)c1cccc(F)c1 (configuration not stated) has IC50 strictly less than 100 µM
Resp: Not fulfilled
